Field: protein stability index. Provide a value for each of the variants that follow.
B1: KRT18 (parent)
chain: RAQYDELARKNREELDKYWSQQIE

variants of: B1; assay: protein stability index of a GFP-peptide fusion (GPS, HEK-293T) (PSI 1-6); higher = more stable; settings: c terminus: a fixed tail appended;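 note: lentivirally expressed fusions sorted by FACS into six bins by GFP to DsRed ratio, PSI derived from sequencing read proportions per bin multiplied by bin number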
Numbers only.

Reported protein stability index for RAQYDELARKNLEELDKYWSQQIE : what is it?
4.56

// each variant listed below needs its protein stability index
1. RAQYDELARKNREMLDKYWSQQIE
2. RAQYDELARKNRHELDKYWSQQIE
3. RAQQDELARKNREELDKYWSQQIE
4. RAQYDELARKNREELDKYWSQQIR
5. RASYDELARKNREELDKYWSQQIE

2.92
3.54
3.93
2.3
2.21

Give one value of protein stability index per listed variant.
1. RAQYDELARKNREELDKYWSKQIE
2. RLQYDELARKNREELDKYWSQQIE
3. RAQYDELARKNKEELDKYWSQQIE
4. RAQYDELARKRREELDKYWSQQIE
5. RAQYDELARKNGEELDKYWSQQIE
6. RAQYDELARKNRQELDKYWSQQIE
7. RAQYDELARKNDEELDKYWSQQIE
8. RAQYDEFARKNREELDKYWSQQIE

1: 3.06; 2: 2.51; 3: 4.37; 4: 3.39; 5: 3.32; 6: 2.91; 7: 4.17; 8: 1.27

Look up protein stability index for the entries below, preserving their order.
1. RAQYDELASKNREELDKYWSQQIE
2. RAQYDELARKNAEELDKYWSQQIE
3. RAQYDELARKNREELDKCWSQQIE
4. RAQYDETARKNREELDKYWSQQIE
5. RAQYDELARKNIEELDKYWSQQIE

3.66
4.25
3.95
3.68
4.34

I'm hoping you can list protein stability index for every variant here, please.
1. RAQVDELARKNREELDKYWSQQIE
2. RAQYDELARKNREELDKYWSQQIT
3. RAQYDELARKNREELDKGWSQQIE

4
3.36
4.27

All values here come from the supplement of paper PMC10567573.
